src = ChEMBL document CHEMBL4190254

Tested on: Hepatitis B virus
Assay procedure: Antiviral activity against HBV infected in human HepAD38 cells assessed as reduction in intracellular viral DNA level at 10 uM by RT-PCR method relative to control
Type: functional
Parameters: scale not given: the % may be the effect or the level left
Listed here are compounds together with their documented Activity.

[
  {
    "Compound": "C=C1[C@H](CO)[C@@H](O)C[C@@H]1n1cnc2c(=O)[nH]c(N)nc21.O",
    "Unit spec": "%",
    "Activity": 53
  },
  {
    "Compound": "CCOC(=O)C1=C(CN2CCOCC2)NC(c2nccs2)=NC1c1ccc(F)cc1Br (centres undefined)",
    "Unit spec": "%",
    "Activity": 82
  },
  {
    "Compound": "Nc1ccn([C@@H]2CS[C@H](CO)O2)c(=O)n1",
    "Unit spec": "%",
    "Activity": 74
  },
  {
    "Compound": "O=C(Nc1ccc(F)c(F)c1)c1cc(NS(=O)(=O)C2CCCCC2)ccc1F",
    "Unit spec": "%",
    "Activity": 63
  }
]

====

Tested on: HepG2
Assay procedure: Cytotoxicity against human HepG2 cells by CellTiter 96 non-radioactive cell proliferation colorimetric assay
Assay type: cell-based

[
  {
    "Molecule": "CS(=O)(=O)NS(=O)(=O)c1ccc(F)c(C(=O)Nc2ccc(F)c(F)c2)c1",
    "Target": "HepG2",
    "CC50": "> 100 µM"
  },
  {
    "Molecule": "CC(C)(NS(=O)(=O)c1ccc(F)c(C(=O)Nc2ccc(F)c(F)c2)c1)c1ccccc1",
    "Target": "HepG2",
    "CC50": "88.2 µM"
  },
  {
    "Molecule": "O=C(Nc1ccc(F)c(F)c1)c1cc(S(=O)(=O)N2CC(F)(F)C(F)(F)C2)ccc1F",
    "Target": "HepG2",
    "CC50": "> 100 µM"
  },
  {
    "Molecule": "O=C(Nc1ccc(F)c(F)c1)c1cc(S(=O)(=O)NS(=O)(=O)C2CC2)ccc1F",
    "Target": "HepG2",
    "CC50": "> 100 µM"
  },
  {
    "Molecule": "O=C(Nc1ccc(F)c(F)c1)c1cc(S(=O)(=O)N2CCC(F)(F)CC2)ccc1F",
    "Target": "HepG2",
    "CC50": "> 100 µM"
  },
  {
    "Molecule": "O=C(Nc1cc(S(=O)(=O)NC2CCCC2)ccc1F)c1ccc(F)c(F)c1",
    "Target": "HepG2",
    "CC50": "> 100 µM"
  },
  {
    "Molecule": "O=C(Nc1ccc(F)c(F)c1)c1cc(S(=O)(=O)NOC2CCCC2)ccc1F",
    "Target": "HepG2",
    "CC50": "26.4 µM"
  },
  {
    "Molecule": "O=C(Nc1ccc(F)c(F)c1)c1cc(S(=O)(=O)N2CCCC2=O)ccc1F",
    "Target": "HepG2",
    "CC50": "> 100 µM"
  },
  {
    "Molecule": "O=C(Nc1ccc(F)c(F)c1)c1cc(NS(=O)(=O)C2CCCC2)ccc1F",
    "Target": "HepG2",
    "CC50": "> 100 µM"
  },
  {
    "Molecule": "O=C(Nc1ccc(F)c(F)c1)c1cc(NS(=O)(=O)C2CC2)ccc1F",
    "Target": "HepG2",
    "CC50": "61.8 µM"
  },
  {
    "Molecule": "O=C1c2cc(S(=O)(=O)NC3CCCC3)ccc2CCN1c1ccc(F)c(F)c1",
    "Target": "HepG2",
    "CC50": "> 100 µM"
  },
  {
    "Molecule": "CCOC(=O)[C@H](CC(C)C)NS(=O)(=O)c1ccc(F)c(C(=O)Nc2ccc(F)c(F)c2)c1",
    "Target": "HepG2",
    "CC50": "> 100 µM"
  },
  {
    "Molecule": "O=C(Nc1ccc(F)c(F)c1)c1cc(NS(=O)(=O)C2CCCCC2)ccc1F",
    "Target": "HepG2",
    "CC50": "80.4 µM"
  },
  {
    "Molecule": "O=C(Nc1ccc(F)c(F)c1)c1cc(S(=O)(=O)NC2CCCC2)ccc1F",
    "Target": "HepG2",
    "CC50": "37.1 µM"
  },
  {
    "Molecule": "O=C(Nc1ccc(F)c(F)c1)c1cc(S(=O)(=O)N2CCC3CCCCC32)ccc1F (stereo not given)",
    "Target": "HepG2",
    "CC50": "> 100 µM"
  },
  {
    "Molecule": "Nc1ccn([C@@H]2CS[C@H](CO)O2)c(=O)n1 [LAMIVUDINE]",
    "Target": "HepG2",
    "CC50": "> 10 µM"
  },
  {
    "Molecule": "COC(=O)[C@H](Cc1ccccc1)NS(=O)(=O)c1ccc(F)c(C(=O)Nc2ccc(F)c(F)c2)c1",
    "Target": "HepG2",
    "CC50": "76.8 µM"
  },
  {
    "Molecule": "O=C(Nc1ccc(F)c(F)c1)c1cc(S(=O)(=O)N2CC(F)(F)C2)ccc1F",
    "Target": "HepG2",
    "CC50": "27 µM"
  },
  {
    "Molecule": "CN(C)S(=O)(=O)NS(=O)(=O)c1ccc(F)c(C(=O)Nc2ccc(F)c(F)c2)c1",
    "Target": "HepG2",
    "CC50": "> 100 µM"
  },
  {
    "Molecule": "CC(NS(=O)(=O)c1ccc(F)c(C(=O)Nc2ccc(F)c(F)c2)c1)c1ccccc1 (stereo not given)",
    "Target": "HepG2",
    "CC50": "> 100 µM"
  },
  {
    "Molecule": "O=C(Nc1ccc(F)c(F)c1)c1cc(S(=O)(=O)N2CCC(F)(F)C2)ccc1F",
    "Target": "HepG2",
    "CC50": "> 100 µM"
  },
  {
    "Molecule": "CN(C1CCCC1)S(=O)(=O)c1ccc2c(c1)C(=O)N(c1ccc(F)c(F)c1)CC2",
    "Target": "HepG2",
    "CC50": "> 100 µM"
  },
  {
    "Molecule": "O=C1c2cc(S(=O)(=O)NC3CCCC3)ccc2CCCN1c1ccc(F)c(F)c1",
    "Target": "HepG2",
    "CC50": "> 100 µM"
  },
  {
    "Molecule": "CN(C1CCCC1)S(=O)(=O)c1ccc2c(c1)C(=O)N(c1ccc(F)c(F)c1)CCC2",
    "Target": "HepG2",
    "CC50": "> 100 µM"
  },
  {
    "Molecule": "CN(C1CCCC1)S(=O)(=O)c1ccc(F)c(C(=O)Nc2ccc(F)c(F)c2)c1",
    "Target": "HepG2",
    "CC50": "48.6 µM"
  },
  {
    "Molecule": "CC(C)(NC(=O)c1cccc(S(=O)(=O)NC2CCCC2)c1)c1ccc(F)c(F)c1",
    "Target": "HepG2",
    "CC50": "> 100 µM"
  },
  {
    "Molecule": "CC(C)OC(=O)[C@H](C)NS(=O)(=O)c1ccc(F)c(C(=O)Nc2ccc(F)c(F)c2)c1",
    "Target": "HepG2",
    "CC50": "45.5 µM"
  },
  {
    "Molecule": "O=C(NC1(c2ccc(F)c(F)c2)CC1)c1cc(S(=O)(=O)NC2CCCC2)ccc1F",
    "Target": "HepG2",
    "CC50": "> 100 µM"
  },
  {
    "Molecule": "O=C(Nc1ccc(F)c(F)c1)c1cc(S(=O)(=O)NC2CC2)ccc1F",
    "Target": "HepG2",
    "CC50": "62.3 µM"
  },
  {
    "Molecule": "O=C(Nc1ccc(F)c(F)c1)c1cc(S(=O)(=O)NS(=O)(=O)c2ccc(F)c(F)c2)ccc1F",
    "Target": "HepG2",
    "CC50": "> 100 µM"
  }
]

====

Target: Core antigen (Hepatitis B virus, UniProt Q03732)
Sequence (Q03732 whole entry): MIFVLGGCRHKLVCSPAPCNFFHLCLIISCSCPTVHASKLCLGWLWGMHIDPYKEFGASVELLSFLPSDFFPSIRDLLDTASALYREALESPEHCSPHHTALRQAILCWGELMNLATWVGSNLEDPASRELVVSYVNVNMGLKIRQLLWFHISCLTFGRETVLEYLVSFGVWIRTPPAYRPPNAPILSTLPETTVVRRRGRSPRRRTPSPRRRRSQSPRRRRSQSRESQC
Assay procedure: Inhibition of capsid in HBV infected in human HepAD38 cells assessed as reduction in tetracycline-induced cccDNA formation by measuring reduction in HBe antigen secretion after 14 days by ELISA

[
  {
    "Compound": "Nc1ccn([C@@H]2CS[C@H](CO)O2)c(=O)n1 [LAMIVUDINE]",
    "Result operator": ">",
    "EC50 [µM]": 10
  },
  {
    "Compound": "O=C(Nc1ccc(F)c(F)c1)c1cc(NS(=O)(=O)C2CCCCC2)ccc1F",
    "Result operator": "=",
    "EC50 [µM]": 9.7
  },
  {
    "Compound": "O=C(Nc1ccc(F)c(F)c1)c1cc(S(=O)(=O)N2CC(F)(F)C2)ccc1F",
    "Result operator": "=",
    "EC50 [µM]": 1
  },
  {
    "Compound": "C=C1[C@H](CO)[C@@H](O)C[C@@H]1n1cnc2c(=O)[nH]c(N)nc21.O",
    "Result operator": ">",
    "EC50 [µM]": 10
  },
  {
    "Compound": "O=C(Nc1ccc(F)c(F)c1)c1cc(S(=O)(=O)NC2CCCC2)ccc1F",
    "Result operator": "=",
    "EC50 [µM]": 1.3
  },
  {
    "Compound": "O=C(Nc1ccc(F)c(F)c1)c1cc(NS(=O)(=O)C2CC2)ccc1F",
    "Result operator": "=",
    "EC50 [µM]": 5.5
  },
  {
    "Compound": "O=C(Nc1ccc(F)c(F)c1)c1cc(NS(=O)(=O)C2CCCC2)ccc1F",
    "Result operator": "=",
    "EC50 [µM]": 6
  }
]
